Cited source: patent US12152087B2

Assay name: Comparative single dose toxicokinetic study in dogs, 30 minutes intravenous infusion
Type: in vivo, beagle dogs
Applied conditions: male, beagle, dog, plasma, iv, 2.5 mg/kg, mean, plasma, labelled analyte; group 3: melflufen-d5 (III) 2.5 mg/kg 30 min infusion; males
Experimental: A comparative single dose toxicity study in dogs was carried out, comparing melflufen-d5 (III) and melflufen to investigate the toxicokinetics of melflufen and melflufen-d5 (III) and their metabolites, desethyl-melflufen and melphalan, after a single intravenous administration of melflufen-d5 (III) or melflufen as 30 minutes infusion in the dog. […] The area under plasma concentration vs. time curve up to the last detectable concentration, AUClast, was calculated by the linear trapezoidal rule. […]
Experimental endpoint: AUC(0-inf) (µM·h)
Provide the reading as a plain figure in µM·h.

Qu. Name the recorded AUC(0-inf) for N[C@@H](Cc1ccc(N(CCCl)CCCl)cc1)C(=O)O .
Ans. 3.33
